- Tested on: desmoglein in a stratum corneum sheet (decomposition by trypsin-like and chymotrypsin-like enzymes)
- PROTOCOL: Percentage of residual desmoglein in stratum corneum sheets (SDS-PAGE / immunoblot with anti-desmoglein antibody)
- Format: biochemical, human
- MEASUREMENT_CONDITIONS: stratum corneum sheet (2 mg) from healthy subjects coated with 5 μl of a 5% aqueous solution of test compound; moisture content not greater than 30%; 37° C. for one week; average of three measurements; control = 100.00
Classify by measured Percentage of residual desmoglein: Criterion met if it is equal to or exceeds 80%, Criterion not met if it is smaller.

>>> answer_label("O=C(O)[C@@H]1CC(O)CN1 (stereo partly drawn) [4-Hydroxy-L-proline]")
"Criterion met"
>>> answer_label("C[C@@H](O)[C@H](N)C(=O)O (racemic) [DL-Threonine]")
"Criterion met"
>>> answer_label("C[N+](C)(C)CC(=O)[O-]")
"Criterion met"
>>> answer_label("CC(N)C(=O)O (racemic)")
"Criterion not met"
>>> answer_label("C[C@@H](O)[C@H](N)C(=O)O [L-Threonine]")
"Criterion met"
>>> answer_label("NCC(=O)O")
"Criterion met"
>>> answer_label("N[C@@H](CO)C(=O)O")
"Criterion not met"
>>> answer_label("NC(CO)C(=O)O (racemic)")
"Criterion not met"
